procedure-summary: qHTS assay to test for compound auto fluorescence at 590 nm (red) in HEK293 cell free culture (AID 720683); note: % is set by controls: 0 for no effect and ±100 for the full control effect
assay-conditions: cell-free medium autofluorescence, Ex540/Em590 red; series mostly up to 91.3 µM
Description: U.S. Tox21 Program National Center for Advancing Translational Sciences [NCATS] NIH Chemical Genomics Center [NCGC] U.S. Environmental Protection Agency [EPA] National Institutes of Environmental Health Sciences [NIEHS] National Toxicology Program [NTP] U.S. Food and Drug Administration [FDA] Tox21 Assay Overview: Compound auto fluorescence often interferes with screening of the compound library against various biological targets and signaling pathways. […] This assay includes the red fluorescence data. […]
Activity calls are given as the source filed them. Calls come from the whole dose curve; as a rule, active = well fitted curve in the direction sought with a large enough effect in the repeat runs; inconclusive = weak or mixed curves; inactive = flat fitted curve, though single readings scatter.
reported-property: fluorescence, % of fluorescent control

>  <compound>
Oc1ccc(C2(c3ccc(O)cc3)c3ccccc3-c3ccccc32)cc1

>  <fluorescence, % of fluorescent control>
inactive

$$$$
>  <compound>
CCCCCCCCCCCCBr

>  <fluorescence, % of fluorescent control>
inactive

$$$$
>  <compound>
CCOP(=O)(NC(C)C)Oc1ccc(SC)c(C)c1 (centres undefined)

>  <fluorescence, % of fluorescent control>
inactive

$$$$
>  <compound>
Clc1ccc(CSC(Cn2ccnc2)c2ccc(Cl)cc2Cl)cc1 (centres undefined)

>  <fluorescence, % of fluorescent control>
0.289% [at 18.6 µM] (inactive)

$$$$

Exercise: Sample CCOC(=O)C1(c2ccccc2)CCN(CCC(C#N)(c2ccccc2)c2ccccc2)CC1 — what was its fluorescence, % of fluorescent control?
Key: inactive

Exercise: Give the measured fluorescence, % of fluorescent control of COc1ccc(/C(=C/C(=O)N2CCOCC2)c2ccc(Cl)cc2)cc1OC .
Key: inactive

Exercise: Recorded fluorescence, % of fluorescent control of CCCOCC(=Nc1ccc(Cl)cc1C(F)(F)F)n1ccnc1 , please.
Key: inactive

Exercise: Fill in the blank: the reported fluorescence, % of fluorescent control of CC(=O)OC1(c2ccccc2)CCN(CCc2ccccc2)CC1 is ____.
Key: inactive
